Source of measurements: patent US8501781B2

# PROTOCOL DESCRIPTION: logP by HPLC (EEC Directive 79/831 Annex V.A8)
# Assay type: physicochemical
# COND: [c] LC-MS, neutral range, pH 7.8, 0.001 molar aqueous ammonium bicarbonate and acetonitrile
Param label: returns label 1 when logP < 4, returns label 0 otherwise, including exact equality.

Is 4 strictly greater than the compound's reported logP? compound: `Cc1cc(C)cc(CC(=O)N2CCC(c3nc(C(=O)OC4CCCCC4)cs3)CC2)c1`
label 0

Is 4 strictly greater than the compound's reported logP? compound: `Cc1cc(C(F)(F)F)nn1CC(=O)N1CCN(c2nc(C(=O)OCc3ccc(F)cc3F)cs2)CC1`
label 1

Is 4 strictly greater than the compound's reported logP? compound: `Cc1ccc(Cl)c(NC(=O)N2CCC(c3nc(C(=O)OCc4ccccc4Br)cs3)CC2)c1`
label 0

Is 4 strictly greater than the compound's reported logP? compound: `Cc1ccc(Cl)cc1NC(=O)N1CCC(F)(c2nc(C(=O)OC3CCCCC3)cs2)CC1`
label 0

Is 4 strictly greater than the compound's reported logP? compound: Cc1ccc(Cl)cc1NC(=O)N1CCC(c2nc(C(=O)OC3CCCc4ccccc43)cs2)CC1 (stereo not shown)
label 0

Is 4 strictly greater than the compound's reported logP? compound: `O=C(OCc1ccccc1Br)c1csc(C2CCN(C(=O)Cc3cc(Br)ccc3Br)CC2)n1`
label 0

Is 4 strictly greater than the compound's reported logP? compound: `Cc1ccc(Cl)cc1NC(=O)N1CCC(F)(c2nc(C(=O)OCc3c(F)cccc3F)cs2)CC1`
label 1

Is 4 strictly greater than the compound's reported logP? compound: Cc1cc(C(F)(F)F)nn1CC(=O)N1CCN(c2nc(C(=O)OC(C)C3CCCCC3)cs2)CC1 (stereo not shown)
label 0

Is 4 strictly greater than the compound's reported logP? compound: `O=C(OCc1ccccc1Br)c1csc(C2CCN(C(=S)Nc3cc(Cl)ccc3Cl)CC2)n1`
label 0

Is 4 strictly greater than the compound's reported logP? compound: `Cc1ccc([N+](=O)[O-])cc1NC(=O)N1CCC(c2nc(C(=O)OCc3ccccc3Br)cs2)CC1`
label 1

Is 4 strictly greater than the compound's reported logP? compound: `Cc1cc(C(F)(F)F)nn1CC(=O)N1CCN(c2nc(C(=O)Oc3cccc4cccnc34)cs2)CC1`
label 1

Is 4 strictly greater than the compound's reported logP? compound: `Cc1cc(C(F)(F)F)nn1CC(=O)N1CCN(c2nc(C(=O)SCc3ccc(Cl)cc3Cl)cs2)CC1`
label 0

Is 4 strictly greater than the compound's reported logP? compound: `Cc1ccc(C)c(NC(=S)N2CCC(c3nc(C(=O)OCc4ccccc4Br)cs3)CC2)c1`
label 1

Is 4 strictly greater than the compound's reported logP? compound: `Cc1ccc(C)c(NC(=O)N2CCC(c3nc(C(=O)OCc4ccccc4Br)cs3)CC2)c1`
label 1
